tested on: NCI-H460 lung; assay: NCI-60 one-dose screen, 48 h; conditions: 10 µM unless noted
This is part of a sample that, as a whole, favours compounds with a hit. Of some 83,000 tested, about 20% had one in any assay. Calls of active or inactive are those of the source. How the source made its calls: active means growth percent below 10; inactive means the rest.
Classes to choose from: yes (1) = active, no (0) = inactive

Challenge: What call does the record list for "CCCCNc1nc(NN2C(=O)c3cccc4cccc(c34)C2=O)nc(-n2cnc3ccccc32)n1" ?
Response given: no (0)

Challenge: What call does the record list for "CN1C(=O)CNC(=O)[C@H](NC(=O)c2nc3ccccc3cc2O)CSSC[C@H]1C(=O)NCCCc1nc2ccccc2cc1O" ?
Response given: no (0)

Challenge: What call does the record list for "COc1cc(/C=C/c2ccccc2)cc(OC)c1" ?
Response given: no (0)

Challenge: What call does the record list for "CCCCn1c(=O)c(-c2cc(-c3ccc(Cl)cc3)nc(-c3ccc(Cl)cc3)c2)cc2ccc(Cl)cc21" ?
Response given: no (0)

Challenge: What call does the record list for "CCOC(=O)c1cn2ncnc(Oc3ccc(NC(=O)NCCN(C)C)c(Cl)c3)c2c1C" ?
Response given: no (0)

Challenge: What call does the record list for "COc1ccc(-c2[nH]ncc2-c2cc3c(c(OC)c2)OCC(=O)N3)cc1" ?
Response given: yes (1)

Challenge: What call does the record list for "C[C@]12CC[C@@H]3c4cc(OC(F)F)c(OS(N)(=O)=O)cc4CC[C@H]3[C@@H]1CC[C@@H]2O" ?
Response given: no (0)

Challenge: What call does the record list for "Cc1nc2ccccc2c(/C=C/c2ccccc2)c1C(=O)/C=C/c1ccc(C(F)(F)F)cc1" ?
Response given: yes (1)

Challenge: What call does the record list for "CC(=O)Oc1ccccc1C(=O)N=C1[Se]CCCN1C(=O)c1ccccc1OC(C)=O" ?
Response given: yes (1)
